- measured-on: T1, Slx9 (6xHis-Slx9) (Saccharomyces cerevisiae, UniProt P53251 1-210)
- T1 sequence: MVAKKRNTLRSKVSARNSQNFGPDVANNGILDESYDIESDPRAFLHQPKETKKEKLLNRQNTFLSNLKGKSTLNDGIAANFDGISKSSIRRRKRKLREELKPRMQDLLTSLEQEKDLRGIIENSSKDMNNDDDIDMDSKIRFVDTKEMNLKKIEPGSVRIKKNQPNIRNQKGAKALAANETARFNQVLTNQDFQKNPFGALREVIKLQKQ
- test-name: filter binding; Filter binding: 50 mM Tris/HCl pH 8.0, 125 mM KCl, 5 mM DTT, 10% glycerol, 10 nM DNA, 0-65 uM Slx9, on ice 30 min; MST: 25 nM Cy5-DNA, NaCl (buffer partly given), 0.5% BSA, 0.05% Tween-20, 24 C
- experimental-context: protein: recombinant; tags: 6xHis (pET28a EcoRI/NotI; about 30 kDa); 5' Cy5 (MST); cannot fold G4
assay-metric: Kd (µM)
Answer in µM, number only, no unit symbol.

Ask | Supply Kd value. Item: AAAAAAAAAAGCGTACGGTGCGTAATAACGCAAGCTATCGCG (ssDNA) [G4mut (mut-G4IX)]
Reply | 15.7
